Reference source: patent US20190262327A1

Target: T1, biotinylated synthetic human Amyloid beta 1-42 peptide (human, UniProt P05067 672-713, biotinylated (N-terminal biotin in Example 4))
T1 construct: domain: Amyloid beta 1-42 peptide; Numbers 1-42 count on the Amyloid beta peptide, not on APP; also called biotinylated human Amyloid beta 1-42; N-terminal biotin Abeta 1-42
T1 sequence (P05067 672-713 limits assumed): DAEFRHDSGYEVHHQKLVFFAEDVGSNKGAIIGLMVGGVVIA
Assay: SPR (ProteOn); biotinylated peptide on streptavidin chip, scFv in solution
Listed binders paired with reported koff
The answer is to be given in s⁻¹; state only the numeric part.

Q. Return reported koff; argument: Abet0321b scFv (scFv, V domains shown, not shown: small tags and cut ends, Purified scFv expressed in E. coli) VH: EVQLLESGGGLVQPGGSLRLSCAASAYHSNHDPMWWVRQAPGKGLEWVSVIGSSGGTTAYADSVKGRFTISRDNSKNTLYLQMNSLRAEDTAVYYCAREWMDHSRPYYYYGMDVWGQGTLVTVSS VL: SYELTQPPSVSVSPGQTASITCSGHNLEDKFASWYQQKPGQSPVLIIYRDDKRPSGIPERFSASNSGHTATLTISGTQATDEADYYCSSQDTVTRVFGGGTKLTVL
A. 3.33e-05

Q. Return reported koff; argument: Abet0377 scFv (scFv, V domains shown, not shown: small tags and cut ends, Purified scFv expressed in E. coli) VH: EVQLLESGGGLVQPGGSLRLSCAASGFNFNEQTLWWVRQAPGKGLEWVSVIGVGTKNIAYADTVKGRFTISRDNSKNTLYLQMNSLRAEDTAVYYCAREWMDHSRPYYYYGMDVWGQGTLVTVSS VL: SYELTQPPSVSVSPGQTASITCSGHNTEHKWISWYQQKPGQSPVLVIYRDDKRPSGIPERFSATNSGHTATLTISGTQATDEADYYCSSQDTVTRVFGGGTKLTVL
A. 3.02e-05
